Data provenance is PubChem BioAssay AID1626.

Let's look at some molecules and their measured inhibition.
assay: M. tuberculosis H37Rv growth inhibitors, H37Rv strain (AID 1626); conditions: active compounds read high, concentration not given here;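 further: bacteria incubated seven days before Alamar blue readout; 0% = bacteria only wells and 100% = bacteria with antibiotic wells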
About 2,000 (0.91%) of roughly 220,000 compounds were called active. About 2% were inconclusive and are not listed. The list is a sample of the results. Potency and affinity values are given separately.
Answer format: numeric, % implied, no suffix.

In [3]: df
Out[3]:
                           molecule  meas_value
0         CC(C)COCc1ccc(O)c2ncccc12        47.1
1      CCOc1ccc(NC(=O)c2ccccc2O)cc1        6.33
2  CCCSc1cc(N2CCCC2)nc(-c2ccccc2)n1        6.61

In plain terms, COC(=O)C1=C(SC)N(c2ccc(OC)cc2)C(c2ccccc2)CC1=O (configuration not stated) has a documented inhibition of -3.65

Please fill in: inhibition reported for CC[C@H](CO)Nc1nc(Nc2cccc(Cl)c2)c2ncn(C(C)C)c2n1 = 15.3

The value of inhibition measured for the molecule Cc1ccc(S(=O)(=O)N(C)C)cc1-n1c(SCC(=O)Nc2ccccc2)nc2ccccc2c1=O turned out to be 1.63

// inhibition lookup, molecule = O=C1NC(=O)C2C1C(c1cccs1)NN2Cc1ccccc1 (configuration not stated) , result: 3.37

Entry Oc1ccc(CN2CCN(Cc3ccccc3)CC2)c2cccnc12 , inhibition reported as -2.63

Per the record, OCc1ccc(O)c2ncccc12 has inhibition of 1.86

Form: molecule = O=S(=O)(CCOc1ccccc1)c1nc2ccccc2[nH]1 ; inhibition = -6.66

Record summary for COc1ccc(S(=O)(=O)N(C)c2ccc(C(N)=O)cc2)cc1 : reported inhibition = 3

Entry COC(=O)c1ccc(Cl)c(S(=O)(=O)N2CCCC2)c1 ; inhibition = 4.58
